Data origin: patent EP1862459A1

# assay-info: physchem
# Assay type: physicochemical
# condition-set: fassif, pH 6.8, Solubility in FaSSIF µg/ml
measured-quantity: solubility

CC1=C(Cl)C(=O)C(CO)(c2ccc(Oc3ccc(OC(F)(F)F)cc3)cc2)CN1 (centres unmarked) : 1 to 5 µg/mL

Ask | Reported solubility for Cc1[nH]c(C=NO)c(-c2ccc(Oc3ccc(OC(F)(F)F)cc3)cc2)c(=O)c1Cl : what is it?
Reply | 5 to 10 µg/mL
